Item-by-item account of pIC50
- Tested on: human mammary gland cancer cell line MDA-MB-231
- assay_summary: dose-effect relationship of drugs and mixtures, crystal violet assay, Median-Effect / Combination index
- Assay type: cell-based
- settings: Homo sapiens; MDA-MB-231, crystal violet, 48 hours, Chou-Talalay method; read-out: Median-Effect Plot parameter IC50
When answering, recall that pIC50 equals minus log10 of the concentration in mol/L, and write that number alone.

Query :: Entry under review: CC(=O)O[C@H]1C(=O)[C@@]2(C)[C@H]([C@H](OC(=O)c3ccccc3)[C@]3(O)C[C@H](OC(=O)[C@H](O)[C@@H](NC(=O)c4ccccc4)c4ccccc4)C(C)=C1C3(C)C)[C@]1(OC(C)=O)CO[C@@H]1C[C@@H]2O [paclitaxel] . Reported pIC50?
Result :: 7.72

Query :: So what's the measured pIC50 for this one? COc1cccc2c1C(=O)c1c(O)c3c(c(O)c1C2=O)C[C@@](O)(C(=O)CO)C[C@@H]3O[C@H]1C[C@H](N)[C@H](O)[C@H](C)O1 [doxorubicin]
Result :: 6.50

Turning to the following molecule.
Query :: Can you look up the measured pIC50 of CC(=O)N(O)CCCCCNC(=O)CCC(=O)N(O)CCCCCNC(=O)CCC(=O)N(O)CCCCCN(CCCCCCCCCC[P+](c1ccccc1)(c1ccccc1)c1ccccc1)CCCCCCCCCC[P+](c1ccccc1)(c1ccccc1)c1ccccc1.[Cl-].[Cl-] [Compound 2] for me?
Result :: 5.23

All figures here come from patent US20200078379A1.
